Property: cell count; scope: individual compounds
- method-notes: inhibitors of TNFa-induced NFkB p65 translocation, primary screen, imaging, HUVEC, MLSMR starter and 10KST1 sets (AID 438);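 further: compound added about 3h40 before a 20 min TNFalpha stimulation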
- particulars: HUVEC TNFa-induced p65 nuclear translocation; measured here: nuclei count (cytotoxicity indicator), at 2.08 µM
Lab note: jot down the number only; don't add units.

The cases that follow already have their cell count on record.
CCOC(=O)C(C)Oc1nc(Oc2ccccc2)nc(N(C)C)n1 (stereo not given) : 645
CC(C)c1cc(NCCCN2CCOCC2)n2c(nc3ccccc32)c1C#N : 548
CC(C)NCC(O)COc1cccc2[nH]ccc12 (stereo not given) : 631
CC[C@]1(O)CC2CN(CCc3c([nH]c4ccccc34)[C@@](C(=O)OC)(c3cc4c(cc3OC)N(C=O)[C@H]3[C@@](O)(C(=O)OC)[C@H](OC(C)=O)[C@]5(CC)C=CCN6CC[C@]43[C@@H]65)C2)C1 (stereo not given in full) : 496

Let us examine a further case.
Problem: Give the value of cell count reported for the following: "CC1(C)CN(O)CCN1O"
Result: 325
